Entries and their measured % binding of the fluorescently labeled mAb (IgG pre-incubation = 100) follow.
- System tested: T1, human CD103 (integrin Alpha-E) / human integrin Beta-7 heterodimer on cells (human, UniProt P38570 19-1179; P26010 20-798)
- T1 construct: the assay field tells which cells; also called hCD103/hBeta7; CHO.K1-hCD103/hBeta7
- T1 sequence (P38570 19-1179 limits assumed, chain 1 of 2): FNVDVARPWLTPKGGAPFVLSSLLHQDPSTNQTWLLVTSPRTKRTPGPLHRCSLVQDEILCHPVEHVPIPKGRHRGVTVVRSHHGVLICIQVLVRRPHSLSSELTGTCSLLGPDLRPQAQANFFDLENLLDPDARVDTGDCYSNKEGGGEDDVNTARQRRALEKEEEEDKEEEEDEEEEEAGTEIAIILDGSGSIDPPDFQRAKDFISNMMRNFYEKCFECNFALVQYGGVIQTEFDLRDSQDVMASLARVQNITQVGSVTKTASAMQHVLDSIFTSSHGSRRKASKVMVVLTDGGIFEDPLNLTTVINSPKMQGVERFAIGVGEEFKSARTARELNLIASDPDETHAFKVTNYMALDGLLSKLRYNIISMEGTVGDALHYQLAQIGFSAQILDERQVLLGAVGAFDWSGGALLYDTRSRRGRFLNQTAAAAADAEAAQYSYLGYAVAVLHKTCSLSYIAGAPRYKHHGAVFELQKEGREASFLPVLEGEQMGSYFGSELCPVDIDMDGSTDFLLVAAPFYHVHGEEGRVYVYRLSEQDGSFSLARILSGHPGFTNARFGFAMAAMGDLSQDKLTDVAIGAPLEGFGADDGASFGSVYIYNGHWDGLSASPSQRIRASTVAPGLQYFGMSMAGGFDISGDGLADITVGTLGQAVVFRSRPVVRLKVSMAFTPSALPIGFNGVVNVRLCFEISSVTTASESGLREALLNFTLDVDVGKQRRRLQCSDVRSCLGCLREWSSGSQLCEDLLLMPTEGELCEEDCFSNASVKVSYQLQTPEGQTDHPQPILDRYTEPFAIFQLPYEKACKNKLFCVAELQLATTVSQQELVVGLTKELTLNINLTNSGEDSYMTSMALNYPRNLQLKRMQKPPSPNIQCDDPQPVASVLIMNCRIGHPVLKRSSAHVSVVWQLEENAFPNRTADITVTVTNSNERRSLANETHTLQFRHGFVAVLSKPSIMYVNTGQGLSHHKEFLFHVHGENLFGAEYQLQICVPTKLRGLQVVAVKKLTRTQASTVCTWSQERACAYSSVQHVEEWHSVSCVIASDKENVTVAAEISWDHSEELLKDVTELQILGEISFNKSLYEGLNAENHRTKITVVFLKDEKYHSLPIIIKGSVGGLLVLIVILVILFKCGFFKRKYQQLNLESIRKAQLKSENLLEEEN
- T1 sequence (P26010 20-798 limits assumed, chain 2 of 2): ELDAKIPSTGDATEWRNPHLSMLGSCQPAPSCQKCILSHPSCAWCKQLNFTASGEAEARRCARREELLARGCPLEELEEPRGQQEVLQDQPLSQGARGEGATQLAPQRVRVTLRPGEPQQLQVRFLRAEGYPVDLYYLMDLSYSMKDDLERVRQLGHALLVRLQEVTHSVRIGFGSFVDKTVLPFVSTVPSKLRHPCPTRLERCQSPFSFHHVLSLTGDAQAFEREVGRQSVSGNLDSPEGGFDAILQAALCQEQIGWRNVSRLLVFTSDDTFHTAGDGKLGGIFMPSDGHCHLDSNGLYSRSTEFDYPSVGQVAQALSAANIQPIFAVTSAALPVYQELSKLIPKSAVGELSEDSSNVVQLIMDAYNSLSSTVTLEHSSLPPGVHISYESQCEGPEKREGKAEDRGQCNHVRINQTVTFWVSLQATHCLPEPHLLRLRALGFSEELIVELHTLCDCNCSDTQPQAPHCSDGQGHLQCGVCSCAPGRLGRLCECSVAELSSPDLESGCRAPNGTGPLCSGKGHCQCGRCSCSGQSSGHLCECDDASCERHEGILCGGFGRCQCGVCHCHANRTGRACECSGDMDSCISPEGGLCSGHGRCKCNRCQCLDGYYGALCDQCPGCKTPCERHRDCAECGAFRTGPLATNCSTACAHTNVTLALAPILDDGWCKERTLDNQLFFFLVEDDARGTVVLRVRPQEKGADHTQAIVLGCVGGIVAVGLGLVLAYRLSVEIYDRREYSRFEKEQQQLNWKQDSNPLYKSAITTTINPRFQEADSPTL
- Test description: flow cytometry competition on CD103+CD8+ T cells; pre-incubation with unlabeled BERACT; table n=1
Give just the number in %; leave the unit off.

{"columns": ["Binder", "Value units", "Observed value"],
 "data": [
  ["hCD103.05A (antibody, mouse IgG1, V domains shown, Also tested labelled with AF647, conjugated with Df and labelled with 89Zr; these are written under this molecule; also called clone 05A; hCD103.05 mAb) VH: EVQLQQSGPELEKPGASAKISCKASGYSFTGYNMNWVKQSNGKSLEWIGNIDPYYGGTSYNQKFKGKATLTVDKSSSTAYMQLKSLTSEDSAVYYCARSFYGYDAGSPYNYAMDYWGQGTPVTVSP VL: DIVMTQSHKFMSTSVGDRVSITCKASQDVGTFVAWYQQKPGQSPKLLIYWASTRHTGVPDRFTGSGSGTDFTLTISNVQSEDLADYFCHQYSSYPYTFGGGTQLEIK", "%", 4.2]
]}

Using the record for hCD103.06A (antibody, mouse IgG1, V domains shown, also called clone 06A; hCD103.06 mAb) VH: QVQLQQPGSELVRPGASVKLSCKASGYTFTSYWMHWVKQRHGQGLEWIGNIYPGSGSTNYDEKFKSKGTLTVDTSSSTAYMHLSSLTSEDSAVYYCTRGVYDNPYYFDYWGQGTTLTVSS VL: DIQMTQSSSNLSVSLGGRVTITCKASDHINNWLAWYQQKPGNAPRVLISGATSLETGVPSRFSGSGSGKDYTLSITSLQTEDVATYYCQQYWSIPLTFGAGTKLELK , report its % binding of the fluorescently labeled mAb (IgG pre-incubation = 100). 84.9

Using the record for hCD103.01A (antibody, V domains shown, Also tested labelled with AF647, conjugated with Df and labelled with 89Zr; these are written under this molecule; also called clone 01A; hCD103.01 mAb) VH: EVQLQESGPSLVKPSQTLSLTCSVTGDSITSGYWNWIRKFPGNKLEYMGYITYSGSTYYNPSLKSRISITRDTSKNQYYLQLNSVTTEDTATYYCTRHYYGSDAMDYWGQGTSVTVSS VL: DIVMTQSHKFMSTSVGDRVSITCKASQDVSIAVAWYQQRPGQSPKLLIYSASYRYTGVPDRFTGSGSGTDFTFTISSVQAEDLAVYYCQQHYSTPWTFGGGTKLEIK , report its % binding of the fluorescently labeled mAb (IgG pre-incubation = 100). 2.5

Using the record for hCD103.07A (antibody, mouse IgG1, V domains shown, also called clone 07A) VH: EVQLQESGPSLVKPSQTLSLTCSVTGDSITSGYWNWIRKFPGNKLEYMGYITYSGSTYYNPSLKSRISITRDTSKNQYYLQLNSVTTEDTATYYCARNYYGSSSMDYWGQGTSVTVSS VL: DIVMTQSQKFMSTSVADRVSVTCKASQNVGSDVAWYQQKPGQSPKSLIYSASYRYSGVPDRFTGSGSGTDFTLTISNVQSEDLAEYFCQQYNSYPSTFGGGTKLEIK , report its % binding of the fluorescently labeled mAb (IgG pre-incubation = 100). 0.7
